Assay: Test Example 1: oral absorption in rats, serum concentrations of tolvaptan after oral suspension
Format: in vivo
Conditions: rat, male rats deprived of food about 18 hours, forced oral administration of suspension, 1 mg of tolvaptan per kg, Mean ± S.D. (n = 3 or 4)
Method: The compounds obtained in Examples 1, 50, and 52 were used as test compounds. […] The following tests were conducted to examine the oral absorption features of each suspension. […] The serum concentrations of tolvaptan (ng/ml) were determined by using UPLC-MS/MS (Waters). The average phaLmacokinetic parameters were calculated from the results.
PARAMETER: MRT inf (h)
Only the number, expressed in h, is required.

For the molecule Cc1ccccc1C(=O)Nc1ccc(C(=O)N2CCCC(O)c3cc(Cl)ccc32)c(C)c1 (stereo not shown) , what MRT inf is on record?
2.95

---

assay: Test Example 1: oral absorption in rats, serum concentrations of tolvaptan after oral suspension; format: in vivo; details: rat, male rats deprived of food about 18 hours, forced oral administration of suspension, 1 mg of tolvaptan per kg, Mean ± S.D. (n = 3 or 4), read-out: Tmax
PARAMETER: Tmax (h)
Only the number, expressed in h, is required.

For the compound Cc1ccccc1C(=O)Nc1ccc(C(=O)N2CCCC(O)c3cc(Cl)ccc32)c(C)c1 (stereo not shown) , what Tmax is on record?
1.5

---

experiment: Test Example 1: oral absorption in rats, serum concentrations of tolvaptan after oral suspension; assay type: in vivo; conditions: rat, male rats deprived of food about 18 hours, forced oral administration of suspension, 1 mg of tolvaptan per kg, Mean ± S.D. (n = 3 or 4), read-out: Cmax
PARAMETER: Cmax (ng/mL)
Only the number, expressed in ng/mL, is required.

For the compound Cc1ccccc1C(=O)Nc1ccc(C(=O)N2CCCC(O)c3cc(Cl)ccc32)c(C)c1 (stereo not shown) [Tolvaptan] , what Cmax is on record?
26.4

---

assay: Test Example 2: oral absorption in rats, serum concentrations of tolvaptan after oral solution or suspension; format: in vivo; details: rat, male rats fasted about 18 hours, forced oral administration of suspension or solution, 1 mg of tolvaptan per kg, Mean ± S.D. (n = 4)
PARAMETER: Cmax (ng/mL)
Only the number, expressed in ng/mL, is required.

For the compound Cc1ccccc1C(=O)Nc1ccc(C(=O)N2CCCC(O)c3cc(Cl)ccc32)c(C)c1 (stereo not shown) , what Cmax is on record?
26.9

---

test: Test Example 2: oral absorption in rats, serum concentrations of tolvaptan after oral solution or suspension; assay type: in vivo; conditions: rat, male rats fasted about 18 hours, forced oral administration of suspension or solution, 1 mg of tolvaptan per kg, Mean ± S.D. (n = 4)
PARAMETER: MRT inf (h)
Only the number, expressed in h, is required.

For the compound Cc1ccccc1C(=O)Nc1ccc(C(=O)N2CCCC(O)c3cc(Cl)ccc32)c(C)c1 (stereo not shown) , what MRT inf is on record?
2.96

---

assay: Test Example 1: oral absorption in rats, serum concentrations of tolvaptan after oral suspension; format: in vivo; settings: rat, male rats deprived of food about 18 hours, forced oral administration of suspension, 1 mg of tolvaptan per kg, Mean ± S.D. (n = 3 or 4)
PARAMETER: AUC(0-inf) (ng·h/mL)
Only the number, expressed in ng·h/mL, is required.

For the compound Cc1ccccc1C(=O)Nc1ccc(C(=O)N2CCCC(O)c3cc(Cl)ccc32)c(C)c1 (stereo not shown) , what AUC(0-inf) is on record?
80.9

---

experiment: Test Example 2: oral absorption in rats, serum concentrations of tolvaptan after oral solution or suspension; type: in vivo; conditions: rat, male rats fasted about 18 hours, forced oral administration of suspension or solution, 1 mg of tolvaptan per kg, Mean ± S.D. (n = 4)
PARAMETER: Tmax (h)
Only the number, expressed in h, is required.

For the compound Cc1ccccc1C(=O)Nc1ccc(C(=O)N2CCCC(O)c3cc(Cl)ccc32)c(C)c1 (stereo not shown) , what Tmax is on record?
1
